Reported pKi values follow for various molecules
Molecular target: Prostaglandin E2 receptor EP2 subtype (Homo sapiens)
Sequence (P43116 whole entry): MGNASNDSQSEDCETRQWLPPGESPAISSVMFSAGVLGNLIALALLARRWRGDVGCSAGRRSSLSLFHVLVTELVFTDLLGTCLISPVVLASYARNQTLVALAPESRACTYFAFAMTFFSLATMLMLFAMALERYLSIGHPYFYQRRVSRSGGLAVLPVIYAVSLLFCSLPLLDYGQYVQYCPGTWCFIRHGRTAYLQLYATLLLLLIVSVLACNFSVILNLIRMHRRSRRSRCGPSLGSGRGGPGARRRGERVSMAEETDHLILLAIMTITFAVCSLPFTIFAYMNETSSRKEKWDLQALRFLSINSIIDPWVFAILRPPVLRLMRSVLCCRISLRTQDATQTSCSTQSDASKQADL
Assay: Binding Assay: Measurement of EP2 receptor binding affinity was carried out according to the method of Abramovitz et al. (Biochimica et Biophysica Acta, 1483, 285 (2000)). […] The membrane fraction was recovered on glass fiber filter paper (GF/B, available from Whatman PLC) using a cell harvester (M30R, available from Brandel Inc.), and after washing with a buffer solution (10 mM MES-KOH (pH 6.0), 10 mM MgCl2), radioactivity was measured with a liquid scintillation analyzer (2000CA, available from Packard).
Conditions: hek293
Units for pKi: none; it is -log10 of a concentration expressed in mol/L.

Some molecules with recorded pKi:
Give the value of pKi reported for the following: `COC(=O)c1ccc(CNC(=O)c2[nH]c(-c3cccs3)cc2-c2ccc(F)cc2)nc1` 8.42

Give the value of pKi reported for the following: `O=C(NO)c1ccc(CNC(=O)c2[nH]c(-c3ccoc3)cc2-c2ccc(F)cc2)cc1` 8.96

Give the value of pKi reported for the following: `O=C(NO)c1ccc(CNC(=O)c2[nH]c(-c3cccs3)cc2-c2ccc(O)cc2)cc1` 7.89

Give the value of pKi reported for the following: `O=C(NO)c1ccc(CNC(=O)c2[nH]c(-c3ccccc3)cc2-c2ccc(F)cc2)o1` 8.82

Give the value of pKi reported for the following: `COc1ccc(-c2cc(-c3ccccc3)[nH]c2C(=O)Nc2ccc(C(=O)NO)o2)cc1` 8.51

Give the value of pKi reported for the following: `O=C(NO)c1ccc(CNC(=O)c2[nH]c(-c3ccc(O)cc3)cc2-c2ccoc2)cc1` 8.03

# evaluate next
Give the value of pKi reported for the following: `O=C(O)c1[nH]c(-c2ccoc2)cc1-c1ccc(O)cc1` 8.55
